Molecular target: T1, Suv3 (human, UniProt Q8IYB8 48-786)
T1 sequence: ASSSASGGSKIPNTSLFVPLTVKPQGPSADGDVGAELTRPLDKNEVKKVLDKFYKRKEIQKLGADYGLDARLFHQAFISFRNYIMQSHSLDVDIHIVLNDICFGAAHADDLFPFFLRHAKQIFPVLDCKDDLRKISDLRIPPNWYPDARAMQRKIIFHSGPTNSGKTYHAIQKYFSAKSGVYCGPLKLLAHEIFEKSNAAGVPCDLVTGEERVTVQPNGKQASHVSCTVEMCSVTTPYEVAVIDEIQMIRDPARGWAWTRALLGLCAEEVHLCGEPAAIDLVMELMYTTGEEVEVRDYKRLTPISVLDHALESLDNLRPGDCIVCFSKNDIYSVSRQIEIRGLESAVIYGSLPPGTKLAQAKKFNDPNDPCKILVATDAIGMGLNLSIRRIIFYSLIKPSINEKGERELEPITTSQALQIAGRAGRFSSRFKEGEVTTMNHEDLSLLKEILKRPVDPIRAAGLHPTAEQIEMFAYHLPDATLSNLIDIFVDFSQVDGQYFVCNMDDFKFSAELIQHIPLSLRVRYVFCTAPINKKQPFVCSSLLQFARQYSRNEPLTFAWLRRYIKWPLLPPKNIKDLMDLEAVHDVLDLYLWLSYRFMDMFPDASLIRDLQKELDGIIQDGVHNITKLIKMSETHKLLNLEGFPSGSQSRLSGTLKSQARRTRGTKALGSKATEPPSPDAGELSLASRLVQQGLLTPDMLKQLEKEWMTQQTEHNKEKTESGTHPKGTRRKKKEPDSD
Experiment: fluorescence polarization
Please use 1 for Kd under 50 nM and 0 for everything else, ties included.

Here's what some known entries look like.
In [3]: df
Out[3]:
                                     binder  group
0  dsRNA 10-nt 3' overhang (dsRNA) RNA 1: GGUGUGGUGGCAUACGUGCAGACGC RNA 2: GCGUCUGCACGUAUGCCACCACACCAGGAGAGGAG      1
1  blunt-end DNA-RNA hybrid (DNA:RNA) DNA: GGTGTGGTGGCATACGTGCAGACGC RNA: GCGUCUGCACGUAUGCCACCACACC      0
2  DNA-RNA hybrid 10-nt 3' overhang (DNA:RNA) DNA: GGTGTGGTGGCATACGTGCAGACGC RNA: GCGUCUGCACGUAUGCCACCACACCAGGAGAGGAG      1
3  dsDNA 10-nt 3' overhang (dsDNA) DNA 1: GGTGTGGTGGCATACGTGCAGACGC DNA 2: GCGTCTGCACGTATGCCACCACACCAGGAGAGGAG      1
4  GGUGUGGUGGCAUACGUGCAGACGC (ssRNA) [ssRNA 25 nt]      0
5  GGTGTGGTGGCATACGTGCAGACGC (ssDNA) [ssDNA 25 nt]      1

Now look at this one.
### Prompt Consider the binder blunt-end dsDNA (dsDNA) DNA 1: GGTGTGGTGGCATACGTGCAGACGC DNA 2: GCGTCTGCACGTATGCCACCACACC . Is its Kd strictly less than 50 nM?
### Response 0
